target.entity: Abl kinase (Homo sapiens)
Sequence (P00519 whole entry): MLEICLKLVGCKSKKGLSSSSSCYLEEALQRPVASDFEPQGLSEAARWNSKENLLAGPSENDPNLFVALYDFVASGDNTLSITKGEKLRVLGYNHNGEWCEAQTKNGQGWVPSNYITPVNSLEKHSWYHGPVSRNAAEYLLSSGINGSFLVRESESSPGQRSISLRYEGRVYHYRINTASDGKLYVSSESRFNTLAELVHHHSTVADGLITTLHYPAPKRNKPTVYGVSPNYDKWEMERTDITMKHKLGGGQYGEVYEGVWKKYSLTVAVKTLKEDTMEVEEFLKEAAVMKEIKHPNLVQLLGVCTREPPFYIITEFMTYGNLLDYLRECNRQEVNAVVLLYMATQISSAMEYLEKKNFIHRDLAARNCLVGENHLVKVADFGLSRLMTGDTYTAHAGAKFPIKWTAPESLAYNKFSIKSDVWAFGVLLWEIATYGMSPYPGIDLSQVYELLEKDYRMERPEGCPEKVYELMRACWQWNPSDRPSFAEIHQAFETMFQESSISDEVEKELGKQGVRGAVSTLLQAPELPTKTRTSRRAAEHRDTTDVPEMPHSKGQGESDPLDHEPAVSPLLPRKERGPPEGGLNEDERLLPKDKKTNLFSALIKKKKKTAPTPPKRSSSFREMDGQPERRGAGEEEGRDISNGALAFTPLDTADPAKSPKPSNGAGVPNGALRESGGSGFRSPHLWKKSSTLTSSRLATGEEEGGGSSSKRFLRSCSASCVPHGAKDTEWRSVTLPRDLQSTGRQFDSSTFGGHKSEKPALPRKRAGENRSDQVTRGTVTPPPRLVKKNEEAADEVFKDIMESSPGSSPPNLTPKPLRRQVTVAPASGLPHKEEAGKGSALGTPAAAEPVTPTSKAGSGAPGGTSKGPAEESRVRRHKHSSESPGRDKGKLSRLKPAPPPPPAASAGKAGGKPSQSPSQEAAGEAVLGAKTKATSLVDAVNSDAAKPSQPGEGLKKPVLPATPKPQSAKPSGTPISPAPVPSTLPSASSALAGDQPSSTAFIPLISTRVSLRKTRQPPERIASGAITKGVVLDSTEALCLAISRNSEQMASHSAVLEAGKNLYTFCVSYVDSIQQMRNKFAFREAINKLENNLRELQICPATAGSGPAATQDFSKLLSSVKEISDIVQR
protocol.notes: biochemical
particulars: Abl IC50 (nM), Abl kinase (Invitrogen, 20 ng/well), Abltide 100 μM, ATP 500 nM, 37° C. for 60 minutes, top concentration 10 uM
Structures can show the parent of a compound that is named as a salt.
Dear colleague, classification is by IC50, with ranges listed here: lower range = under 40 nM, middle range = from 40 nM up to 200 nM, upper range = 200 nM and over

Query: Just checking, what class would you give O=S(=O)(c1ccc(Nc2ncc(/C=C/c3ccc4[nH]ncc4c3)cn2)cc1)C1CCNCC1 here?
Response: middle range

Query: Just checking, what class would you give O=S(=O)(NCCO)c1ccc(Nc2ncc(/C=C/c3cccc4[nH]ncc34)cn2)cc1N1CCNCC1 [trifluoroacetic acid salt] here?
Response: lower range

Query: Just checking, what class would you give C(=C\c1cccc2[nH]ccc12)/c1cnc(Nc2ccc(C3CCNCC3)cc2)nc1 here?
Response: middle range

Query: Just checking, what class would you give O=C(Nc1cccc(/C=C/c2cnc(Nc3ccc(S(=O)(=O)C4CCNCC4)cc3)nc2)c1)c1cccc(C(F)(F)F)c1 [Hydrochloride] here?
Response: lower range

Query: Just checking, what class would you give O=S(=O)(c1ccc(Nc2ncc(/C=C/c3cccc4[nH]ccc34)cn2)cc1)N(CCO)C1CCNCC1 here?
Response: upper range

Query: Just checking, what class would you give Nc1nc2ccc(/C=C/c3cnc(Nc4ccc(S(=O)(=O)NCCO)c(N5CCNCC5)c4)nc3)cc2s1 here?
Response: upper range

Query: Just checking, what class would you give Cc1cc(S(=O)(=O)N2CCNCC2)ccc1Nc1ncc(/C=C/c2cccc(O)c2)cn1 here?
Response: upper range

Query: Just checking, what class would you give O=S(=O)(c1ccc(Nc2ncc(/C=C/c3cc(C(F)(F)F)cc4[nH]cnc34)cn2)cc1)C1CCNCC1 here?
Response: upper range

Query: Just checking, what class would you give O=S(=O)(c1ccc(Nc2ncc(/C=C/c3ccc(-c4ncc[nH]4)cc3)cn2)cc1)C1CCNCC1 [hydrochloride] here?
Response: upper range

Query: Just checking, what class would you give O=S(=O)(c1ccc(Nc2ncc(/C=C/c3cccc(O)c3)cn2)cc1)N1CCC(CCO)CC1 here?
Response: lower range

Query: Just checking, what class would you give Nc1nc2ccc(/C=C/c3cnc(Nc4ccc(S(=O)(=O)N5CCNCC5)c(NCCO)c4)nc3)cc2s1 here?
Response: middle range

Query: Just checking, what class would you give O=S(=O)(c1ccc(Nc2ncc(/C=C/c3ccc4[nH]nnc4c3)cn2)cc1)C1CCNCC1 here?
Response: middle range

Query: Just checking, what class would you give C=Cc1cnc(Nc2ccc(S(=O)(=O)N3CCNCC3)c(N3CCNCC3)c2)nc1 [trifluoroacetic acid salt] here?
Response: upper range

Query: Just checking, what class would you give Oc1ccc(Cl)c(/C=C/c2cnc(Nc3ccc(OCCN4CCCC4)cc3)nc2)c1 [hydrochloride] here?
Response: lower range

Query: Just checking, what class would you give Cc1cccc(/C=C/c2cnc(Nc3ccc(S(=O)(=O)C4CCNCC4)cc3)nc2)c1 [TFA] here?
Response: middle range

Query: Just checking, what class would you give O=S(=O)(c1ccc(Nc2ncc(/C=C/c3cccc(O)c3)cn2)cc1)N1CCC(CO)CC1 here?
Response: lower range

Query: Just checking, what class would you give O=S(=O)(c1ccc(Nc2ncc(/C=C/c3cccc(-c4ncc[nH]4)c3)cn2)cc1)C1CCNCC1 here?
Response: middle range

Query: Just checking, what class would you give O=S(=O)(NC1CCNCC1)c1ccc(Nc2ncc(/C=C/c3cccc4[nH]ncc34)cn2)cc1 [hydrochloride] here?
Response: lower range

Query: Just checking, what class would you give O=S(=O)(c1ccc(Nc2ncc(/C=C/c3cccc(C(F)F)c3)cn2)cc1)C1CCNCC1 here?
Response: middle range

Query: Just checking, what class would you give O=S(=O)(c1ccc(Nc2ncc(/C=C/c3cc(C(F)(F)F)cc4[nH]nnc34)cn2)cc1)N1CCNCC1 here?
Response: upper range

Query: Just checking, what class would you give Nc1nc2ccc(/C=C/c3cnc(Nc4ccc(S(=O)(=O)N5CCNCC5)c(F)c4)nc3)cc2s1 here?
Response: middle range

Query: Just checking, what class would you give C=Cc1cnc(Nc2ccc(S(=O)(=O)C3CCNCC3)cc2)nc1 [trifluoroacetate] here?
Response: upper range

Query: Just checking, what class would you give Cc1cc(Nc2ncc(/C=C/c3cccc(O)c3)cn2)cc(C)c1S(=O)(=O)N(C)CCN1CCCC1 here?
Response: lower range

Query: Just checking, what class would you give NC(=O)CN(C1CCNCC1)S(=O)(=O)c1ccc(Nc2ncc(/C=C/c3ccc4nc(N)sc4c3)cn2)cc1 here?
Response: middle range

Query: Just checking, what class would you give Nc1nc2ccc(/C=C/c3cnc(Nc4ccc(S(=O)(=O)N5CCNCC5CO)cc4)nc3)cc2s1 (stereo not drawn) here?
Response: middle range

Query: Just checking, what class would you give O=S(=O)(c1ccc(Nc2ncc(/C=C/c3cccc(O)c3)cn2)cc1OC(F)(F)F)N1CCNCC1 here?
Response: middle range

Query: Just checking, what class would you give O=S(=O)(c1ccc(Nc2ncc(/C=C/c3ccc(F)c(O)c3)cn2)cc1)C1CCNCC1 here?
Response: lower range

Query: Just checking, what class would you give Nc1nc2ccc(/C=C/c3cnc(Nc4ccc(S(=O)(=O)N5CCCC(O)C5)cc4)nc3)cc2s1 (stereo not drawn) here?
Response: upper range

Query: Just checking, what class would you give O=C(Nc1nc2ccc(/C=C/c3cnc(Nc4ccc(S(=O)(=O)C5CCNCC5)cc4)nc3)cc2s1)c1cccc(C(F)(F)F)c1 [Hydrochloride] here?
Response: upper range

Query: Just checking, what class would you give O=S(=O)(NC1CCNCC1)c1ccc(Nc2ncc(/C=C/c3cccc4[nH]ccc34)cn2)cc1 here?
Response: lower range

Query: Just checking, what class would you give Nc1nc2ccc(/C=C/c3cnc(Nc4ccc(S(=O)(=O)C5CCCNCC5)cc4)nc3)cc2s1 (stereo not drawn) here?
Response: lower range

Cited source for all entries: patent US20070149508A1
